Molecular target: Epidermal growth factor receptor (Homo sapiens) (UniProt P00533)
Sequence (P00533 whole entry): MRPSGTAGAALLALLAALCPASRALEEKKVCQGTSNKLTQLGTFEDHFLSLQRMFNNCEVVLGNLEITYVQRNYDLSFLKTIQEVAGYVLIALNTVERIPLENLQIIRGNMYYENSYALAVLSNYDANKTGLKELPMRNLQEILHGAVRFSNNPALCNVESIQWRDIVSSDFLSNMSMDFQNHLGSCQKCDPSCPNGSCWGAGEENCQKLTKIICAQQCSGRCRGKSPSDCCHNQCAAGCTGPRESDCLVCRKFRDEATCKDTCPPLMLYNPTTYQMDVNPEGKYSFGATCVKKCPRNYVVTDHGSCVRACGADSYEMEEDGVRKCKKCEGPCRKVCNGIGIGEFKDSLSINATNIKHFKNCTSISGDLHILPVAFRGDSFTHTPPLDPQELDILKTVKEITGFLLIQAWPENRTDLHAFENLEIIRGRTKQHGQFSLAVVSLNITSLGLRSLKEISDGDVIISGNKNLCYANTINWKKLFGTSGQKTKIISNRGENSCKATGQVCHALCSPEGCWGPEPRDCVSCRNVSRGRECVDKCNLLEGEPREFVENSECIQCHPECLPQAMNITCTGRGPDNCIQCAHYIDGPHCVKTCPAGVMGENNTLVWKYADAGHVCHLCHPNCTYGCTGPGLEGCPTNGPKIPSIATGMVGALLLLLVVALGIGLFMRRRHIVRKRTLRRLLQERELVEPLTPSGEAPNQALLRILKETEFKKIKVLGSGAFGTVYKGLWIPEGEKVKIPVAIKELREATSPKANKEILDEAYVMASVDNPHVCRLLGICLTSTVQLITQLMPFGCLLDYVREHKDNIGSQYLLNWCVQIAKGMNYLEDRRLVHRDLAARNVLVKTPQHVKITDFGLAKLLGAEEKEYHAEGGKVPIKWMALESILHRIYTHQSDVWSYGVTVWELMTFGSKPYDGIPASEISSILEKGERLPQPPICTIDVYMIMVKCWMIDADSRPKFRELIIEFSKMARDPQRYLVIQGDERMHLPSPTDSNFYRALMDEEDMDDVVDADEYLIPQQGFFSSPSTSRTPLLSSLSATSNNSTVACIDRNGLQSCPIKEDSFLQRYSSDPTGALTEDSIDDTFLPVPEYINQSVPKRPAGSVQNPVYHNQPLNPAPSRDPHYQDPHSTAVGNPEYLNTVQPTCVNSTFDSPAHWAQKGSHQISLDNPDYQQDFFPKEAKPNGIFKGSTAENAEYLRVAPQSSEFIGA
Conditions: at 0.1 µM
Description: GSK_PKIS: EGFR mean inhibition at 0.1 uM [Nanosyn]
Tick yes if inhibition is 2% or greater. Tick no if inhibition is less than 2%.

Recorded results for 2 compounds are shown here.
Exam item: Decide: inhibition of `NS(=O)(=O)c1ccc(N/C=C2\C(=O)Nc3ccc4ncsc4c32)cc1` >= 2%?
Marked response: yes

Exam item: Decide: inhibition of `CCn1c(-c2nonc2N)nc2c(C#CC(C)(C)O)nc(O[C@@H](CN)c3ccccc3)cc21` >= 2%?
Marked response: no

Others:
Exam item: Decide: inhibition of `NC(=O)c1sc(-n2cnc3cc(C(F)(F)F)ccc32)cc1OCc1ccccc1Br` >= 2%?
Marked response: yes

Exam item: Decide: inhibition of `COc1cc(C=NNc2ncnc3c2cnn3Cc2ccccc2)ccc1O` >= 2%?
Marked response: yes

Exam item: Decide: inhibition of `Fc1ccc(-c2ncn(C3CCNCC3)c2-c2ccnc(Oc3ccccc3)n2)cc1` >= 2%?
Marked response: yes

---

Biological target: ALK tyrosine kinase receptor (Homo sapiens)
Conditions: at 0.1 µM
Description: GSK_PKIS: ALK mean inhibition at 0.1 uM [Nanosyn]
Each entry below lists one item and its recorded inhibition value.
Give the quantity in %, number only.

Exam item: Query: inhibition; subject: `COc1cc2c(cc1Nc1nc(Nc3ccsc3C(N)=O)c3cc[nH]c3n1)N(C(=O)CN(C)C)CCC2`
Marked response: 83.9

Others:
Exam item: Query: inhibition; subject: `NS(=O)(=O)c1ccc(N/C=C2\C(=O)Nc3ccc4ncsc4c32)cc1`
Marked response: 4.55

Exam item: Query: inhibition; subject: `COc1cc(C=NNc2ncnc3c2cnn3Cc2ccccc2)ccc1O`
Marked response: -4.96

Exam item: Query: inhibition; subject: `COc1cccc(-n2ncc3c(N/N=C/c4ccncc4)ncnc32)c1`
Marked response: 3.94

Exam item: Query: inhibition; subject: `CCn1c(-c2nonc2N)nc2c(C#CC(C)(C)O)ncc(OCC3CCNCC3)c21`
Marked response: -2.65

Exam item: Query: inhibition; subject: `COc1cccc(COc2cc(-n3cnc4ccccc43)sc2C(N)=O)c1`
Marked response: -0.33

Exam item: Query: inhibition; subject: `CCn1c(-c2nonc2N)nc2c(C#CC(C)(C)O)ncc(OC[C@@H]3CCCN3)c21`
Marked response: -0.46

Exam item: Query: inhibition; subject: `NC(=O)c1sc(-n2cnc3cc(C(F)(F)F)ccc32)cc1OCc1ccccc1Br`
Marked response: 1.22

Exam item: Query: inhibition; subject: `Nc1nonc1-c1nc2cnccc2n1C1CCCCC1`
Marked response: -2.37

Exam item: Query: inhibition; subject: `NS(=O)(=O)c1ccc(-c2ccc3c(NC(=O)C4CC4)n[nH]c3c2)cc1`
Marked response: 2.73

---

Each entry below lists one item and its recorded inhibition value.
Biological target: Casein kinase I isoform gamma-1 (Homo sapiens) (UniProt Q9HCP0)
Sequence (Q9HCP0 whole entry, looked up, canonical isoform): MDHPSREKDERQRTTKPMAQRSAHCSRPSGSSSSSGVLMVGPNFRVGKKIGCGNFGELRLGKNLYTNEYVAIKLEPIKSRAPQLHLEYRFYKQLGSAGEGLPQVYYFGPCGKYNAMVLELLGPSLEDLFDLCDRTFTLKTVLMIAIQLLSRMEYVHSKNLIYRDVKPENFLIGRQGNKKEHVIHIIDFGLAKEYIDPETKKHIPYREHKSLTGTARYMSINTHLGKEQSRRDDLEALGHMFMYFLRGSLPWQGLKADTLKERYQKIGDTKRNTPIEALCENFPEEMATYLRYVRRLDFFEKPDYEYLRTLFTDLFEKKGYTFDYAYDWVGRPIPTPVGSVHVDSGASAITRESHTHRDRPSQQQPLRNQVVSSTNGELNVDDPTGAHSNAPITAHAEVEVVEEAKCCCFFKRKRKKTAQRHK
Details: at 0.1 µM
Give the quantity in %, number only.

Worked cases, inhibition given:
Exam item: # returns recorded inhibition (system: Casein kinase I isoform gamma-1 (Homo sapiens) (UniProt Q9HCP0)) for `COc1cc2c(cc1Nc1nc(Nc3ccsc3C(N)=O)c3cc[nH]c3n1)N(C(=O)CN(C)C)CCC2`
Marked response: -0.49

Exam item: # returns recorded inhibition (system: Casein kinase I isoform gamma-1 (Homo sapiens) (UniProt Q9HCP0)) for `NS(=O)(=O)c1ccc(N/C=C2\C(=O)Nc3ccc4ncsc4c32)cc1`
Marked response: 4.38

Exam item: # returns recorded inhibition (system: Casein kinase I isoform gamma-1 (Homo sapiens) (UniProt Q9HCP0)) for `NS(=O)(=O)c1ccc(-c2ccc3c(NC(=O)C4CC4)n[nH]c3c2)cc1`
Marked response: 1.56

Exam item: # returns recorded inhibition (system: Casein kinase I isoform gamma-1 (Homo sapiens) (UniProt Q9HCP0)) for `Fc1ccc(-c2ncn(C3CCNCC3)c2-c2ccnc(Oc3ccccc3)n2)cc1`
Marked response: -1.52

Exam item: # returns recorded inhibition (system: Casein kinase I isoform gamma-1 (Homo sapiens) (UniProt Q9HCP0)) for `CCn1c(-c2nonc2N)nc2c(C#CC(C)(C)O)ncc(OCC3CCNCC3)c21`
Marked response: -0.98

Exam item: # returns recorded inhibition (system: Casein kinase I isoform gamma-1 (Homo sapiens) (UniProt Q9HCP0)) for `NC(=O)c1sc(-n2cnc3cc(C(F)(F)F)ccc32)cc1OCc1ccccc1Br`
Marked response: 1.09

Exam item: # returns recorded inhibition (system: Casein kinase I isoform gamma-1 (Homo sapiens) (UniProt Q9HCP0)) for `CCn1c(-c2nonc2N)nc2c(C#CCN)ncc(OCCCN)c21`
Marked response: -2.42

Exam item: # returns recorded inhibition (system: Casein kinase I isoform gamma-1 (Homo sapiens) (UniProt Q9HCP0)) for `COc1cc(C=NNc2ncnc3c2cnn3Cc2ccccc2)ccc1O`
Marked response: -3.34

Exam item: # returns recorded inhibition (system: Casein kinase I isoform gamma-1 (Homo sapiens) (UniProt Q9HCP0)) for `COc1cccc(COc2cc(-n3cnc4ccccc43)sc2C(N)=O)c1`
Marked response: 1.18

Exam item: # returns recorded inhibition (system: Casein kinase I isoform gamma-1 (Homo sapiens) (UniProt Q9HCP0)) for `Nc1nonc1-c1nc2cnccc2n1C1CCCCC1`
Marked response: -2.65

Others:
Exam item: # returns recorded inhibition (system: Casein kinase I isoform gamma-1 (Homo sapiens) (UniProt Q9HCP0)) for `COc1cccc(-n2ncc3c(N/N=C/c4ccncc4)ncnc32)c1`;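 note: reported as mean inhibition, part of GSK PKIS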
Marked response: 3.65
